Parameter: viability, T/C. Scope: all listed entries.
System: 945468-187-T-J2-PDC spheroids viability;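 note: spheroids exposed to compounds for seven days before reading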
methodSummary: Anticancer human tumor 945468-187-T-J2-PDC patient-derived rectal carcinoma cell line growth inhibition [PI3K]
assayConditions: second compound 0.01 µM; first compound 0.1 µM; stronger effect = lower value; spheroids with HUVEC and MSC
Kindly answer with a numeric value in %, unit omitted.

Known results for molecules:
Which measured viability, T/C value corresponds to CC(C)n1nc(-c2ccc3oc(N)nc3c2)c2c(N)ncnc21 + CC(Nc1ccc2c(c1)OCCn1cc(N3C(=O)OCC3C(F)F)nc1-2)C(N)=O ? 71

Which measured viability, T/C value corresponds to CC(Cn1ccc(-c2ccc(C#N)c(Cl)c2)n1)NC(=O)c1cc(C(C)O)[nH]n1 (stereo not drawn) + COc1c(OCCCN2CCOCC2)ccc2c3n(c(=NC(=O)c4cnc(N)nc4)nc12)CCN3 ? 104

Turning now to a further record.
Which measured viability, T/C value corresponds to C=CC(=O)N1CCN(c2nc(=O)n(-c3c(C)ccnc3C(C)C)c3nc(-c4c(O)cccc4F)c(F)cc23)C(C)C1 (stereo not drawn) + CC(Nc1ccc2c(c1)OCCn1cc(N3C(=O)OCC3C(F)F)nc1-2)C(N)=O ? 98

Where do these numbers come from? They come from PubChem BioAssay AID1963972.
